Target: hHASPIN (Homo sapiens, UniProt Q8TF76)
Construct: purchased DiscoverX
Sequence (Q8TF76 whole entry): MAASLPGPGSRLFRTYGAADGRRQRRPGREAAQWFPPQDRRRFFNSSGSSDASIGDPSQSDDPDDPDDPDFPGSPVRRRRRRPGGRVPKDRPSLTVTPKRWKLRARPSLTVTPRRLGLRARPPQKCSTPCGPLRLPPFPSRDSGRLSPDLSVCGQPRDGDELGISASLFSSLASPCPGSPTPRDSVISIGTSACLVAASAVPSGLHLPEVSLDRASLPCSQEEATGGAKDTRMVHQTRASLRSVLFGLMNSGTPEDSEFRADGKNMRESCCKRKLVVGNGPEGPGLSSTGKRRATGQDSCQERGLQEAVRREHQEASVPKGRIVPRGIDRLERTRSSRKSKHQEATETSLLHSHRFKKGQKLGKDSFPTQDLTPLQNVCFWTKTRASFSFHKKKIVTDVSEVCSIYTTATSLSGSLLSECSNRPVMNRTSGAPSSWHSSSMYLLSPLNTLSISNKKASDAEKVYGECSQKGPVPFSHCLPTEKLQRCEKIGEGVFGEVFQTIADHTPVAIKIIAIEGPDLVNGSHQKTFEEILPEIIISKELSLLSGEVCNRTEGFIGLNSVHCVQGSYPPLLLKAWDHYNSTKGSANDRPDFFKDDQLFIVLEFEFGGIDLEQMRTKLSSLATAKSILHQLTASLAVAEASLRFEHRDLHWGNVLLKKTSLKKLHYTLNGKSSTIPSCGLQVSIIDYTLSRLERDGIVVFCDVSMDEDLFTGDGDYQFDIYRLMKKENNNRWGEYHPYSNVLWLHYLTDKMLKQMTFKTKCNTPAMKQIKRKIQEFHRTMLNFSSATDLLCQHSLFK
Experiment: KINOMEscan
Format: binding
Measurement Type: IC50

I'd like to know its IC50. The molecule in question is Cc1cn(CCN2CCN(c3ccccc3-c3cc(C#N)cc(C(=O)NCCCN4CCCC4)c3)CC2)c2ccccc12
> 20 µM

---

Target: hKIT(V559D,T670I) (Homo sapiens, UniProt P10721, T670I/V559D)
Construct: purchased DiscoverX (KINOMEscan platform)
Sequence (P10721 26-976 V559D/T670I): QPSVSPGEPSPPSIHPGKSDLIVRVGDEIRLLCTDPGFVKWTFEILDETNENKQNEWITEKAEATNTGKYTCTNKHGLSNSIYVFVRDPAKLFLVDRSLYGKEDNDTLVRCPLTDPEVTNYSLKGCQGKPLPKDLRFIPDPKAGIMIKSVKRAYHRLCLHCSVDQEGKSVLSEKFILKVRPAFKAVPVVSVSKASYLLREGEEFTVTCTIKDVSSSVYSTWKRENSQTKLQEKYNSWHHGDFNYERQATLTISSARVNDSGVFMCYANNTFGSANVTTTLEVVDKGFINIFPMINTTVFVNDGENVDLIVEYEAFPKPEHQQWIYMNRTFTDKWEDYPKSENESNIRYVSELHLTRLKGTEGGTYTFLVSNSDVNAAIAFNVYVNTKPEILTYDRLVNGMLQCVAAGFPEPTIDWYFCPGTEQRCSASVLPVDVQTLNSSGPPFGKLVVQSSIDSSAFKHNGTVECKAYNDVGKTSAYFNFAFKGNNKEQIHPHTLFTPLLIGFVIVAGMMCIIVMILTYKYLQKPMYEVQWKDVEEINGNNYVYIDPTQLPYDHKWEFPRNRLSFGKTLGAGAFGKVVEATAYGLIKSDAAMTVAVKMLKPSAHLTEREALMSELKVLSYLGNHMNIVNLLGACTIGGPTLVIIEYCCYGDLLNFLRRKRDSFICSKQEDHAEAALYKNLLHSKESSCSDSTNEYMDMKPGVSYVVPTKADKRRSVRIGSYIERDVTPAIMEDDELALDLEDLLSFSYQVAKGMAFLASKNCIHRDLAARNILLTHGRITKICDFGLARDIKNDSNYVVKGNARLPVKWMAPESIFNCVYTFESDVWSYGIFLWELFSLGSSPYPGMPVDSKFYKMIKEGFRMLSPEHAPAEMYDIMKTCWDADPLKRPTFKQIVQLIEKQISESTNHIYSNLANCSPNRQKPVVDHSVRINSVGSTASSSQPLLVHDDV
Test: KINOMEscan
Assay type: binding
pIC50: −log10 of the molar value.
Measurement Type: pIC50

Which pIC50 value belongs to Cc1cn(CCN2CCN(c3ccccc3-c3cc(C#N)cc(C(=O)NCCCN4CCCC4)c3)CC2)c2ccccc12 ?
< 4.70
